test system: Pseudomonas aeruginosa UC-12120; assay: minimum inhibitory concentration (MIC) testing according to CLSI guidelines, Pseudomonas aeruginosa; assay type: cell-based; conditions: Pseudomonas aeruginosa, UC12120; UC-12120, wild-type, labeled as 1091-05; overnight incubation; lower of duplicate values; read-out: AB-MBT: Pseudomonas aeruginosa 1091-05: MIC (MstRcn)
outcomeMeasure: MIC (µg/mL)

Examples from the recorded data:
1) CC(C)(O/N=C(\C(=O)N[C@@H]1C(=O)N(S(=O)(=O)O)[C@@H]1CNC(=O)CNC(=O)NCc1cc(=O)c(O)cn1O)c1csc(N)n1)C(=O)O    0.25
2) CC(C)(O/N=C(\C(=O)N[C@@H]1C(=O)N(S(=O)(=O)O)[C@@H]1CNC(=O)NCc1cc(=O)c(O)cn1O)c1csc(N)n1)C(=O)O    0.125
3) CC(C)(O/N=C(\C(=O)N[C@@H]1C(=O)N(S(=O)(=O)O)[C@@H]1Cn1cc(COCc2cc(=O)c(O)cn2O)nn1)c1csc(N)n1)C(=O)O    0.25
4) CC(C)(O/N=C(\C(=O)N[C@@H]1C(=O)N(S(=O)(=O)O)[C@@H]1Cn1cc(-c2cc(=O)c(O)cn2O)nn1)c1csc(N)n1)C(=O)O    0.125
5) CC(C)(O/N=C(\C(=O)N[C@@H]1C(=O)N(S(=O)(=O)O)[C@@H]1CNC(=O)c1ccc(CNC(=O)c2cc(O)c(O)cn2)cc1)c1csc(N)n1)C(=O)O    0.125
6) CC(C)(O/N=C(\C(=O)N[C@@H]1C(=O)N(S(=O)(=O)O)[C@@H]1CNC(=O)c1ccc(C(=O)NCc2cc(=O)c(O)cn2O)cc1)c1csc(N)n1)C(=O)O    0.125
7) CC(C)(O/N=C(\C(=O)N[C@@H]1C(=O)N(S(=O)(=O)O)[C@@H]1CNC(=O)c1cc(=O)c(O)c[nH]1)c1csc(N)n1)C(=O)O    0.125
8) CC(C)(O/N=C(\C(=O)N[C@@H]1C(=O)N(S(=O)(=O)O)[C@@H]1CNC(=O)NCc1cc(-c2cc(=O)c(O)cn2O)no1)c1csc(N)n1)C(=O)O    0.125

A. CC(C)(O/N=C(\C(=O)N[C@@H]1C(=O)N(S(=O)(=O)O)[C@@H]1CNC(=O)CCC(=O)NCc1cc(=O)c(O)cn1O)c1csc(N)n1)C(=O)O
B. Nc1nc(/C(=N/OC2(C(=O)O)CCC2)C(=O)N[C@@H]2C(=O)N(S(=O)(=O)O)[C@@H]2CNC(=O)c2ccc(CNC(=O)c3cc(=O)c(O)cn3O)cc2)cs1
C. CC(C)(O/N=C(\C(=O)N[C@@H]1C(=O)N(S(=O)(=O)O)[C@@H]1CNC(=O)c1cc(-c2cc(=O)c(O)cn2O)on1)c1csc(N)n1)C(=O)O
Arrange these molecules by their MIC, starting with the largest number. The response must list the labels following the requested ordering.
B, C, A
